src = patent US20200239555A1

- assayTarget: T1, biotinylated native human ApoC3 (human, UniProt P02656 21-99, biotinylated (site not stated))
- T1 construct: also called biotinylated human ApoC3
- T1 sequence (P02656 21-99): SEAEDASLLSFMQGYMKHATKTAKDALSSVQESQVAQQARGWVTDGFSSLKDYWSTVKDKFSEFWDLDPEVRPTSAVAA
- protocolNotes: SPR, IgG1 over biotinylated ApoC3 on SA chip, pH 5.5
measuredParameter: Ka (M⁻¹)
# value in M⁻¹; strip the unit string

Q: Would you mind telling me what Ka value was observed for mAb10 (antibody, IgG1, V domains shown, Produced as full length IgG1 (kappa) in ExpiCHO-S cells; also called humanized anti-ApoC3 antibody mAb10) VH: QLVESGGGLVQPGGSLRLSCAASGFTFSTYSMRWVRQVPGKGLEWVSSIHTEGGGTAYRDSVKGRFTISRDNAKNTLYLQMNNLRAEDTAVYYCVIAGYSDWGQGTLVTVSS VL: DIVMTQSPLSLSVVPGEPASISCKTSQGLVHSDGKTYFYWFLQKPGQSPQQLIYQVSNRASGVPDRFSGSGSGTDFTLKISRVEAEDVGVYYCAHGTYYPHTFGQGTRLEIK ?
Result: 3.7e+09

Q: Would you mind telling me what Ka value was observed for mAb4 (antibody, IgG1, V domains shown, Produced as full length IgG1 (kappa) in ExpiCHO-S cells; also called humanized anti-ApoC3 antibody mAb4) VH: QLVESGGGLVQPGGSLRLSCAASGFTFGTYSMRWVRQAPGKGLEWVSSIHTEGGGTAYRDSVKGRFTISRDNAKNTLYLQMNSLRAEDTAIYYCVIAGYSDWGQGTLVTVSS VL: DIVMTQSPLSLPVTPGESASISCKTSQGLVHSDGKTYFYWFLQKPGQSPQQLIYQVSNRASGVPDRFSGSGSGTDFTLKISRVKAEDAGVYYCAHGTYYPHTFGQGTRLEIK ?
Result: 2.67e+09

Q: Would you mind telling me what Ka value was observed for mAb11 (antibody, IgG1, V domains shown, Produced as full length IgG1 (kappa) in ExpiCHO-S cells; also called humanized anti-ApoC3 antibody mAb11) VH: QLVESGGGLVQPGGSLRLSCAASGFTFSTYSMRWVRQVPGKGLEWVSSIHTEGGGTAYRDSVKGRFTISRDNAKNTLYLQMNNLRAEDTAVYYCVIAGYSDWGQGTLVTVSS VL: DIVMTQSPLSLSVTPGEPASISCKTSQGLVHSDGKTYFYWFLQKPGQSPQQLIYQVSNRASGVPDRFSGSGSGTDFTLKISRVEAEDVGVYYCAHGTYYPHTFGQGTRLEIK ?
Result: 3.02e+09

Q: Would you mind telling me what Ka value was observed for mAb15 (antibody, IgG1, V domains shown, Produced as full length IgG1 (kappa) in ExpiCHO-S cells; also called humanized anti-ApoC3 antibody mAb15) VH: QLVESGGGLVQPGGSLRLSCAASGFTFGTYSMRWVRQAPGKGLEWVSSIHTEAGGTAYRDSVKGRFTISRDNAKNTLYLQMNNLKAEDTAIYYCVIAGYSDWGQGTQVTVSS VL: DIVMTQSPLSLPVTPGESASISCKTSQGLVHSGGKTYFYWFLQKPGQSPQQLIYQVSNRASGVPDRFTGSGSGTDFTLKISRVEAEDAGVYYCAQGTYYPHTFGSGTRLEIK ?
Result: 2.83e+09
